// provenance: the supplement of paper PMC7125110

B1: glmS ribozyme (parent)
chain: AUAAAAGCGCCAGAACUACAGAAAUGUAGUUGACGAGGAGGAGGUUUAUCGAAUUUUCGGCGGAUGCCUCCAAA

variants of: B1; assay: self-cleavage kobs at 640 uM GlcN6P; higher = faster cleavage; RNA array; conditions: with glucosamine-6-phosphate
This sample holds only a part of the variants without activity.
self-cleavage kobs at 640 uM GlcN6P values by entry

Item: G32C G44C A48C C67G | self-cleavage kobs at 640 uM GlcN6P: < 1e-05 s⁻¹

Reported self-cleavage kobs at 640 uM GlcN6P of G41A G66U : 2.19e-05 s⁻¹

Summary for this variant, A6U G41A C58A : self-cleavage kobs at 640 uM GlcN6P is < 1e-05 s⁻¹

Reported self-cleavage kobs at 640 uM GlcN6P for G7C U31A was < 1e-05 s⁻¹
